B1: Osa-1-4 twister ribozyme (parent)
chain: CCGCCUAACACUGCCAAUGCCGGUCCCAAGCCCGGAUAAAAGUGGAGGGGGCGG

# Variants of: B1
# assay details: self-cleavage, relative activity (ratio to wild type); higher = more cleavage; co-transcriptional
measure name: self-cleavage
I'd appreciate a reply containing only the number, no unit.

| sequence chain | self-cleavage |
| --- | --- |
| CCGCCUAAGAUUGCCAAUGCCGGUCCCAAGCCCGGAUAAAAGUGGAGGGGGCGG [C11U C9G] | 0.36 |

[in] // self-cleavage lookup, key: CCGCCUAACACUGCCAAUGCCAGUCCCAAGCCCGGAUAAAACUGGAGGGGGCGG [G22A G42C]
[out] 0.1

[in] Moving on to the next variant: CCGCCUAACACUGCCAAUGCCGGUCCCAAGCUCCGAUAAAAGUGGAGGGGGCGG [C32U G34C]
[out] 0.07

[in] Moving on to the next variant: CCGCCUAACACUGCCAAUGCCGGUCCCAAGCCCGGCUAAAAGUGGACGGGGCGG [A36C G47C]
[out] 0.06

[in] Moving on to the next variant: CCGCCUAACACUGCCAAUGCCGGUCCCAAGCCCAGAUAAAAGUGGAGGGGGCGC [G34A G54C]
[out] 0.7

[in] Moving on to the next variant: CCGCCUAACACUGCCAAUGCCGGUCCCAAGCCCGGAUAAACGUGGGGGGGGCGG [A41C A46G]
[out] 0.06

[in] Moving on to the next variant: CCGCCUAACACUGCCAAUGCCGGUCCCAAGACCGAAUAAAAGUGGAGGGGGCGG [C31A G35A]
[out] 0.05

[in] Moving on to the next variant: CCGCCUAACAUUGUCAAUGCCGGUCCCAAGCCCGGAUAAAAGUGGAGGGGGCGG [C11U C14U]
[out] 0.17

[in] Moving on to the next variant: CCGCCUAACACUGCCAAUGCCGGUACCAAGCUCGGAUAAAAGUGGAGGGGGCGG [C25A C32U]
[out] 0.04

[in] Moving on to the next variant: CCGCCUAACACCGCCAAUGCCGGUCCCAAUCCCGGAUAAAAGUGGAGGGGGCGG [G30U U12C]
[out] 0.03

[in] Moving on to the next variant: CCGCCUAACACUGCCAAUGCCGGUGCCAAGCCCGGAUAAAAGUGGCGGGGGCGG [A46C C25G]
[out] 0.02

[in] Moving on to the next variant: CCGCCUAACACUGCCAAUGCCGGUCCCAAGCCCGGAUAAGAGUGGAGAGGGCGG [A40G G48A]
[out] 0.08

[in] Moving on to the next variant: CCGCCUAACACUGCCGAUGCCGGUCCCAAGCCCGGAAAAAAGUGGAGGGGGCGG [A16G U37A]
[out] 0.87

[in] Moving on to the next variant: CCGCCUAACACUGCCAAGGCCGGUCCCAAGCCCGGAUAAACGUGGAGGGGGCGG [A41C U18G]
[out] 0.85

[in] Moving on to the next variant: CCGCCUAACACUGCCAUUGCCGGUCCCAAGCCCGGAUAAAAGUGGAGGGGGCAG [A17U G53A]
[out] 0.95

[in] Moving on to the next variant: CCGCCUUACACUGCCAAUUCCGGUCCCAAGCCCGGAUAAAAGUGGAGGGGGCGG [A7U G19U]
[out] 0.1

[in] Moving on to the next variant: CCGCCUAACACUGUCAAUGCCGAUCCCAAGCCCGGAUAAAAGUGGAGGGGGCGG [C14U G23A]
[out] 0.06

[in] Moving on to the next variant: CCGCCUAACACUGCCAAUGCCGGUCCCAAGCCCGGAUAAAAGUGGUGGGGGAGG [A46U C52A]
[out] 0.1

[in] Moving on to the next variant: CCGCCUAACACUGCCAAUGCCGGUCCCAAGCCCGGAUAACACUGGAGGGGGCGG [A40C G42C]
[out] 0.06

[in] Moving on to the next variant: CCGCCUAACACAGCCAAUGCCGGUCACAAGCCCGGAUAAAAGUGGAGGGGGCGG [C26A U12A]
[out] 0.04

[in] Moving on to the next variant: CCGCCUAACACUACCAGUGCCGGUCCCAAGCCCGGAUAAAAGUGGAGGGGGCGG [A17G G13A]
[out] 0.23

[in] Moving on to the next variant: CCGCCUAAGACUGCCAAUGCCGGUCCCAAGCCCGGUUAAAAGUGGAGGGGGCGG [A36U C9G]
[out] 0.9

[in] Moving on to the next variant: CCGCCUAACACUGCCAAUGGCGGUCCCAAGCCCUGAUAAAAGUGGAGGGGGCGG [C20G G34U]
[out] 0.06

[in] Moving on to the next variant: CCGCCUAACACUGCCAAUGCCGGUCCCAAGCCCGGAUAAAAGCGCAGGGGGCGG [G45C U43C]
[out] 0.06
